experiment: Rat PK: plasma prodrug concentration after intravenous (IV) dosing of xanomeline prodrugs at 1 mg/kg (Example A-6); format: in vivo, male Sprague-Dawley (SD) rats; settings: male, Sprague-Dawley, analyte prodrug, IV 1 mg/kg of xanomeline, individual animals
Measurement Label: Tmax (min)

CCCCCCOc1nsnc1C1=CCC[N+](C)(C(CC)OC(=O)C(C)(C)C)C1 (centres unmarked) :: 15
CCCCCCOc1nsnc1C1=CCC[N+](C)(C(C)OC(=O)C(C)(C)C)C1 (centres unmarked) :: 15

----------
assay: Rat PK: plasma prodrug concentration after intravenous (IV) dosing of xanomeline prodrugs at 1 mg/kg (Example A-6); format: in vivo, male Sprague-Dawley (SD) rats; conditions: male, Sprague-Dawley, iv, 1 mg/kg, 0.250 h, IV 1 mg/kg of xanomeline, Mean, read-out: Prodrug Plasma Concentrations Following Intravenous Dosing
Measurement Label: concentration at 0.25 h (ng/mL)

CCCCCCOc1nsnc1C1=CCC[N+](C)(C(C)OC(=O)C(C)(C)C)C1 (centres unmarked) :: 27.2
CCCCCCOc1nsnc1C1=CCC[N+](C)(C(CC)OC(=O)C(C)(C)C)C1 (centres unmarked) :: 33.2

----------
assay: Rat PK: plasma prodrug concentration after intramuscular (IM) dosing of xanomeline prodrugs at 5 mg/kg (Example A-4); assay type: in vivo, male Sprague-Dawley (SD) rats; conditions: male, Sprague-Dawley, intramuscular, 5 mg/kg, 0.500 h, IM 5 mg/kg of xanomeline, individual animals, read-out: Prodrug Plasma Concentrations Following Intramuscular Dosing
Measurement Label: concentration at 0.5 h (ng/mL)
Lab book: enter the figure in ng/mL, no units written.

Per the records, this compound ( CCCCCCOc1nsnc1C1=CCC[N+](C)(C(C)OC(=O)C(C)(C)C)C1 (stereo not shown) [Compound 19] ) has concentration at 0.5 h equal to 284

----------
experiment: Rat PK: plasma xanomeline after single subcutaneous (SC) dosing of xanomeline or xanomeline prodrugs at 1 mg/kg (Example A-1); assay type: in vivo, male Sprague-Dawley (SD) rats; details: male, Sprague-Dawley, plasma, sc, xanomeline analyte in plasma, individual animal (Table 3), read-out: T½ (converted)
Measurement Label: half-life (h)
Lab book: enter the figure in h, no units written.

Per the records, this compound ( CCCCCCOc1nsnc1C1=CCCN(C)C1 ) has half-life equal to 2.3
